- test details: Extinction coefficients and absorption maxima of dyes at different pH values
- Format: physicochemical
- conditions used: pH 10, 405 nm
observation type: Extinction coefficient

Report Extinction coefficient for each item below.
1. O=[N+]([O-])c1ccccc1O [o-Nitrophenol]
2. O=[N+]([O-])c1ccnc(Cl)c1O [3-Hydroxy-4-nitro-2-chloropyridine]
3. O=[N+]([O-])c1ccc(O)cc1 [p-Nitrophenol]

Result:
4.01 1·mol^-1·cm^-1·10^3
5.4 1·mol^-1·cm^-1·10^3
18.30 1·mol^-1·cm^-1·10^3

Short answer for O=[N+]([O-])c1ncccc1O [3-Hydroxy-2-nitropyridine] : Extinction coefficient was 5.90 1·mol^-1·cm^-1·10^3

---

- test details: Extinction coefficients and absorption maxima of dyes at different pH values
- Format: physicochemical
- conditions used: pH 5.0, 405 nm
Answer each item with its documented Extinction coefficient.

1. O=[N+]([O-])c1ncccc1O [3-Hydroxy-2-nitropyridine]: 2.32 1·mol^-1·cm^-1·10^3
2. O=[N+]([O-])c1ccccc1O [o-Nitrophenol]: 0.48 1·mol^-1·cm^-1·10^3
3. O=[N+]([O-])c1ccnc(Cl)c1O [3-Hydroxy-4-nitro-2-chloropyridine]: 5.34 1·mol^-1·cm^-1·10^3

Then there is this compound:
According to the records, this compound O=[N+]([O-])c1ccc(O)cc1 [p-Nitrophenol] displays Extinction coefficient of 0.40 1·mol^-1·cm^-1·10^3

---

Would you mind telling me the reported Extinction coefficient of each entry?
- test details: Extinction coefficients and absorption maxima of dyes at different pH values
- Type: physicochemical
- conditions used: pH 4.0, 405 nm

1. O=[N+]([O-])c1ccnc(Cl)c1O [3-Hydroxy-4-nitro-2-chloropyridine]: 4.93 1·mol^-1·cm^-1·10^3

For every listed record, write down its Extinction coefficient.
1. O=[N+]([O-])c1ccc(O)cc1 [p-Nitrophenol]
2. O=[N+]([O-])c1ccccc1O [o-Nitrophenol]

Result:
1. 0.20 1·mol^-1·cm^-1·10^3
2. 0.47 1·mol^-1·cm^-1·10^3

Note to self: Extinction coefficient recorded for O=[N+]([O-])c1ncccc1O [3-Hydroxy-2-nitropyridine] was 0.50 1·mol^-1·cm^-1·10^3

---

- test details: Extinction coefficients and absorption maxima of dyes at different pH values
- Assay type: physicochemical
- conditions used: pH 7.1, 405 nm
What Extinction coefficient was measured for each of the following?

Give Extinction coefficient for each listed item.
1. O=[N+]([O-])c1ccnc(Cl)c1O [3-Hydroxy-4-nitro-2-chloropyridine]
2. O=[N+]([O-])c1ncccc1O [3-Hydroxy-2-nitropyridine]
3. O=[N+]([O-])c1ccc(O)cc1
4. O=[N+]([O-])c1ccccc1O

Result:
1. 5.48 1·mol^-1·cm^-1·10^3
2. 5.80 1·mol^-1·cm^-1·10^3
3. 9.7 1·mol^-1·cm^-1·10^3
4. 2.34 1·mol^-1·cm^-1·10^3

---

Provide the recorded Extinction coefficient for the entries that follow.
- test details: Extinction coefficients and absorption maxima of dyes at different pH values
- Assay type: physicochemical
- conditions used: pH 6.0, 405 nm

Would you mind giving Extinction coefficient for every compound in the list below?
1. O=[N+]([O-])c1ccnc(Cl)c1O [3-Hydroxy-4-nitro-2-chloropyridine]
2. O=[N+]([O-])c1ccccc1O
3. O=[N+]([O-])c1ncccc1O [3-Hydroxy-2-nitropyridine]

Result:
["5.40 1·mol^-1·cm^-1·10^3", "0.75 1·mol^-1·cm^-1·10^3", "5.09 1·mol^-1·cm^-1·10^3"]

The reported Extinction coefficient of the compound O=[N+]([O-])c1ccc(O)cc1 was 1.50 1·mol^-1·cm^-1·10^3

---

Answer each item with its documented pKa.
- test details: pKa of the dyes A-OH
- Type: physicochemical
Answers are plain numbers.

1) O=[N+]([O-])c1ccnc(Cl)c1O [3-Hydroxy-4-nitro-2-chloropyridine]: 3.1
2) O=[N+]([O-])c1ncccc1O [3-Hydroxy-2-nitropyridine]: 5.1
3) O=[N+]([O-])c1ccccc1O [o-Nitrophenol]: 7.08
4) Cc1cc(=O)oc2c([N+](=O)[O-])c(O)ccc12 [4-Methyl-8-nitrobenzopyran-2-one]: 4.45
5) N#Cc1c2ccc(=O)cc-2oc2cc(O)ccc12 [compound C1, 3H-7-Hydroxy-9-cyanoxanthen-3-one]: 5.55

Attention now shifts to the item below.
Summary for this compound, O=[N+]([O-])c1nc(Cl)ccc1O [3-Hydroxy-2-nitro-6-chloropyridine] : pKa is 3.9

Origin of measurements: patent US4716222A
